From: ChEMBL document CHEMBL4152372

# Test system: NIH3T3
# Procedure text: Induction of autophagy in mouse NIH/3T3 cells assessed as increase in LC3-2 to LC3-1 ratio at 25 to 100 uM after 4 hrs by immunoblot analysis
# Assay type: functional, cell-based
Active and inactive are the calls of the source. The rule behind the calls is not given here.
Log the outcome using a class from label 1 = active, label 0 = inactive

Reference set (5 entries):
- Compound: "CCCCC(=O)[C@H]1O[C@H]1C(=O)N(C)C"
  Class: "label 0"
- Compound: "CCCC[C@@H](O)[C@H]1O[C@H]1C(N)=O"
  Class: "label 0"
- Compound: "CCCC[C@]1(OC)NC(=O)[C@@H]2O[C@@H]21"
  Class: "label 0"
- Compound: "CCCC[C@@]1(O)NC(=O)[C@@H]2O[C@@H]21"
  Class: "label 1"
- Compound: "CCCCC(=O)CCC(N)=O"
  Class: "label 0"

Now for another entry.
Just curious, what result did CCCCC1(O)NC(=O)[C@H]2O[C@H]21 (stereo partly specified) get here?
label 0
